# System: T-cell
# Assay explanation: CD25 cell surface staining on T-cells co-stimulated with anti-CD3 and anti-CD28 antibody (Biological Example 2)
# Format: cell-based, human
# Condition notes: Homo sapiens, T-cell, fold change over baseline; 1 μM Cbl-b inhibitor; primary human total T-cells; read-out: CD25 staining Anti-CD3/Anti-CD28 stimulation
As shown below, each of these compounds has a reported fold induction at 1 µM value.

As a guide, the following entries are already answered.
>  <Compound>
C[C@H](Sc1nnc[nH]1)c1cccc(NC(=O)c2cc3ccccc3cn2)c1

>  <Tested on>
T-cell

>  <Readout>
fold induction at 1 µM

>  <Result>
< 1

$$$$
>  <Compound>
C[C@H](Sc1nncn1C)c1ccnc(N2Cc3c(cccc3C(F)(F)F)C2=O)c1 [Compound 172a]

>  <Tested on>
T-cell

>  <Readout>
fold induction at 1 µM

>  <Result>
< 1

$$$$
>  <Compound>
COc1cc(C(=O)Nc2cccc([C@H](C)Sc3nncn3C)c2)nc(C(F)(F)F)c1

>  <Tested on>
T-cell

>  <Readout>
fold induction at 1 µM

>  <Result>
1.51 to 1.75

$$$$
>  <Compound>
C[C@H](Cc1nncn1C)c1cccc(NC(=O)c2cnn3cccnc23)c1

>  <Tested on>
T-cell

>  <Readout>
fold induction at 1 µM

>  <Result>
< 1

$$$$

# input Could you share what fold induction at 1 µM was measured for "C[C@H](Cc1nncn1C)c1cccc(NC(=O)c2nc3c(C(F)(F)F)cccc3[nH]2)c1" , tested on T-cell?
# output 1.51 to 1.75

All values here come from patent US20220324835A1.
